Measured values drawn from the supplement of paper PMC12632987 for this set.

median log2 fold change: recorded values
- target.or.test.system: GABARAPL2, P60520
- Sequence (P60520 whole entry, the tested form may be a part): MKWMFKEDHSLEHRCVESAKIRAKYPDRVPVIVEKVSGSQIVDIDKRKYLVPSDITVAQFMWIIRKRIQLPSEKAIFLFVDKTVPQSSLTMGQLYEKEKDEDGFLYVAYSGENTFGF
- assay.protocol: median log2 fold change of GCK-ALFA target abundance (FLAG IP / Myc IP barcode read proportion) (log2 ratio); each designed protein is fused to an ALFA-tag nanobody in HEK293 cells to bring the named protein to FLAG-tagged glucokinase (GCK); Myc marks an untargeted standard; higher = target protein stabilised (more abundant)
- condition.label: target protein: 3xFLAG-MCP-GCK-ALFA reporter; HEK293 landing pad (RPLP)
readout: median log2 fold change

binder="GBRAPL2_128_7285 (protein) MKLVTIDIKVENEEEYELAKKVLDEIAEEGSPAVAKLADAARDMLESEKEEGFKDGVSVADILSDEEAEELKELYEKLAEKYGKEKVNKIIELTVDDLPP" recorded_measurement=-0.134
binder="GBRAPL2_83_7415 (protein) VERTVLITTEITVRHPDLTEEEALDLAGDVAARLREHGVKTVVGVEERDGVVHIVLESLTPDDPALRAAIDEEVDALVAELRARGAEVEVRREEEVVDVP" recorded_measurement=-0.00519
binder="GBRAPL2_128_7280 (protein) MKLVEISVTVENEEEYELAKKVLTEIAEKGSPEVAKLADAALDLVESNKEDGFDEAVVAVDILSEEDAEELKELYEELAEKYGKEKVEKVIQVEVDDIPP" recorded_measurement=-0.794
binder="GBRAPL2_53_7355 (protein) MVEIDIGHPDKEVMVKALEEVFDLIEKAGAEVEVIVTKEDGTVIKLTGSVEEIREKVIALAREQPILVTILLKEKNEKLVEEMVDAALKAGATVSVEELP" recorded_measurement=0.379
